# Lookup of reported glycan array binding signal (z-score) keyed by entry
# target-entity: Gal(b1-3)GlcNAc(b1-3)Gal(b1-4)[Fuc(a1-3)]GlcNAc
# protocol-details: glycan array binding signal (z-score within array); higher = stronger binding
# experimental-parameters: glycan notation: IUPAC condensed, linker removed
This excerpt belongs to a sample that is enriched for the strongest signals.
measured-property: glycan array binding signal (z-score)

binder	result
Mg3lysM (Mycosphaerella graminicola) (protein) APQNPPTSCSAAPQPTGTGSPGTVCGSTTFTNYTVKAGDTLGAIAKQYNSGVCDIAKVNGIDNPDYIKPDQVLSIPANCVTPDNTSCVKPVPVITNTCVLGVGSTYTVKSGDSFSAIATSFNITLASLEARNPQIPNYDLIFPGQVINTPLCPNSVCDSIGTYVIESGDIFYNLAQSNNVTVGQLESLNVNVNVTDIHPGDIIILPHNCHNITASA	-0.157
Aap lectin (Staphylococcus epidermidis) (protein) VNLNYSSPFMSLLSMPADSSSNNTKNTIDIPPTTVKGRDNYDFYGRVDIESNPTDLNATNLTRYNYGQPPGTTTAGAVQFKNQVSFDKDFDFNIRVANNRQSNTTGADGWGFMFSKKDGDDFLKNGGILREKGTPSAAGFRIDTGYYNNDPLDKIQKQAGQGYRGYGTFVKNDSQGNTSKVGSGTPSTDFLNYADNTTNDLDGKFHGQKLNNVNLKYNASNQTFTATYAGKTWTATLSELGLSPTDSYNFLVTSS	-0.351
CFEM-CGl (Candida glabrata), Q6FRS0 (protein) VLATPPACLLACVAQVSKQSSQCHTLNQVGCFCENENTAIKNCLDSICPNGNSDAAYTAFKNSCGDVGKAVASV	-0.497
